Origin of the recorded values: patent US9375419B1

Assay: Cytotoxicity by neutral red dye uptake, primary assay
Conditions: human
Quantity kind: CC50 at 3 day

Line notation	Quantity kind	Recorded measurement
COc1c(C)cnc(Cn2cnc3c(Cl)cc(N)cc32)c1C	CC50 at 3 day	> 100 µM

---

Experiment: Neutral red (toxicity), secondary assay
Conditions: human
Quantity kind: CC50 at 3 day

Line notation	Quantity kind	Recorded measurement
COc1c(C)cnc(Cn2cnc3c(Cl)cc(N)cc32)c1C	CC50 at 3 day	> 50 µM
